Where do these numbers come from? They come from patent US6376497B1.

- Test system: Aspergillus furnigatus B. 19119
- experimental details: In vitro antifungal activity, microbroth dilution MIC
- Assay type: cell-based
- condition notes: A furnigatus B. 19119, RPMI-1640, 35° C., 4 to 48 hours
I would appreciate it if you labelled entries Yes when Minimal inhibitory concentration (MIC) is 10 µg/mL or higher, otherwise No.

{"compound": "FC(=Cc1ccccc1)OCC1COC(Cn2cncn2)(c2ccc(Cl)cc2Cl)O1 (mixture of isomers)", "cat": "No"}
{"compound": "Cc1cccc(C=C(F)OCC2COC(Cn3cncn3)(c3ccc(Cl)cc3Cl)O2)c1 (mixture of isomers)", "cat": "Yes"}

Exam item: decide whether the reported Minimal inhibitory concentration (MIC) for Cc1cccc(C(=C(F)OCC2COC(Cn3ccnc3)(c3ccc(F)cc3F)O2)C(F)(F)F)c1 (mixture of isomers) is at least 10 µg/mL. No

Same lookup for CC(C)Oc1cccc(C=C(F)OCC2COC(Cn3ccnc3)(c3ccc(Cl)cc3Cl)O2)c1 (stereo not drawn) , please. Yes
